metric: melting point

compound: CCc1c(O)cccc1O
melting point: 58 to 59 °C

Given the compound O=C(O)c1ccc(CNC(=O)C2Cc3ccccc3N2S(=O)(=O)c2ccc(-c3cccc(C(F)(F)F)c3)cc2)c(Cl)c1 (stereo not drawn) , what is its reported melting point?
110 to 120 °C

Param item = "NC(=O)N(O)Cc1ccc(OCCc2csc(-c3ccc(C(F)(F)F)cc3)n2)cc1" ; retrieve measured melting point.
146 to 147 °C

* * *

Quick list: melting point per entry.

Can you share its melting point? I mean this compound: CNc1nc(N)nc2c1ncn2C1C=CC(CO)C1 (configuration not stated)
221 to 223 °C

GET /values?readout=melting point&item= "C=C1N(CCCC)C(=O)OC12CCN(CCC=C(c1ccc(Cl)cc1)c1ccc(Cl)cc1)CC2"
110 to 111 °C

Give its melting point value. Item: "Oc1cccc(C#Cc2ccc3ccc(Br)cc3n2)c1"
197 to 199 °C

Measured values drawn from a melting point compilation (Tetko et al.; mined from patent text by program, amines drawn as free bases though some values may be those of a salt) for this set.
